# Assay Remarks: In vitro microsomal stability, human
# Format: in vitro ADME
# Assay Context: 5 min
Value Kind: % of compound remaining when incubated in human liver microsomes with NADPH (%)
Return type: number; implicit unit %.

Ask: Answer with the recorded % of compound remaining when incubated in human liver microsomes with NADPH for the compound listed here: CC(O)C(O)CCNC(=O)[C@@H]1N[C@H](CC(C)(C)C)[C@]2(C(=O)Nc3cc(Cl)c(F)cc32)[C@H]1c1cccc(Cl)c1 (stereo partly shown)
Reply: 78.11

Ask: Answer with the recorded % of compound remaining when incubated in human liver microsomes with NADPH for the compound listed here: CC(C)(C)C[C@H]1N[C@@H](C(=O)NC2CC(O)C2)[C@H](c2cccc(Cl)c2F)[C@@]12C(=O)Nc1cc(Cl)ccc12 (stereo partly shown)
Reply: 83.26

Ask: Answer with the recorded % of compound remaining when incubated in human liver microsomes with NADPH for the compound listed here: `CC(C)(C)C[C@H]1N[C@@H](C(=O)N[C@H]2C[C@@](C)(O)C2)[C@H](c2cccc(Cl)c2F)[C@@]12C(=O)Nc1cc(Cl)ccc12`
Reply: 83.66

Ask: Answer with the recorded % of compound remaining when incubated in human liver microsomes with NADPH for the compound listed here: CC(C)(C)C[C@H]1N[C@@H](C(=O)N[C@H]2C[C@@H](O)C2)[C@H](c2cccc(Cl)c2F)[C@@]12C(=O)Nc1cc(Cl)ccc12 (stereo in doubt)
Reply: 77.75
